List of ELISA data values.
- tested.on: T1, CD81 (UniProt P60033 1-236, limits assumed)
- T1 construct: whole, on cells; also called CD81 receptor
- T1 sequence (looked up): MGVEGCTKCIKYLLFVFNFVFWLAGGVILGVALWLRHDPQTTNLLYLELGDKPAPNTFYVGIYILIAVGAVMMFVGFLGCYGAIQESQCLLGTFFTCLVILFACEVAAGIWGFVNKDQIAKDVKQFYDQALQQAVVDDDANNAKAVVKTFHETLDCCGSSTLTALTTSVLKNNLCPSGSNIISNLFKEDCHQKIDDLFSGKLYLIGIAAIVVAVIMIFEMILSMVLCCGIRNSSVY
- test: cell ELISA;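 also: antibody binding to HuH7 cells expressing CD81 versus a CD81-negative HuH7 control line, bound antibody detected by secondary reagent, absorbance at 450 nm with 620 nm reference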
measurement.name: ELISA data

>  <binder>
CD81K13 HC 5b-hVH_1_69-GA / LC 1c-hVK_3_15 (antibody, V domains shown, human constant region) VH: QVQLVQSGAELVKPGSSVKVSCKASGFNFKDSYLHWVRQAPGQGLEWMGRIDTGNGNVKFDPKFQGRVTITTDESTSTAYMELSSLRSEDTAVYYCVPYGYGFHSWGQGTLVTVSS VL: EIVMTQSPATLSVSPGERATLSCRASENIYRTLAWYQQKPGQAPRLLIYGATTLADGIPARFSGSGSGTEFTLTISSLQSEDFGVYYCQHFWGTPWTFGQGTKVEIK

>  <measurement.name>
ELISA data

>  <number>
0.794

$$$$
>  <binder>
CD81K13 HC 07-hVH_1_3 / LC 1b-hVK_3_15 (antibody, V domains shown, human constant region) VH: QVQLVQSGAEVKKPGASVKVSCKASGYTFKDSYLHWVRQAPGQGLEWMGRIDTGNGNVKFDPKFQGRVTITTDTSASTAYMELSSLRSEDTAVYYCAPYGYGFHSWGQGTLVTVSS VL: EIVMTQSPATLSVSPGERATLSCRASENIYRTLAWYQQKPGQAPRLLIYGATTLADGIPARFSGSGSGTEFTLTISSLQSEDFAVYYCQHFWGTPWTFGQGTKVEIK

>  <measurement.name>
ELISA data

>  <number>
0.367

$$$$
>  <binder>
CD81K13 HC 03-hVH_1_69 / LC 03-hVK_1_9 (antibody, V domains shown, human constant region) VH: QVQLVQSGAEVKKPGSSVKVSCKASGFNFKDSYLHWVRQAPGQGLEWMGRIDTGNGNVKYAQKFQGRVTITADESTSTAYMELSSLRSEDTAVYYCAPYGYGFHSWGQGTLVTVSS VL: DIQLTQSPSFLSASVGDRVTITCRASENIYRTLAWYQQKPGKAPKLLIYAATTLASGVPSRFSGSGSGTEFTLTISSLQPEDFATYYCQHFWGTPWTFGQGTKVEIK

>  <measurement.name>
ELISA data

>  <number>
0.208

$$$$
